tested on: KRas^Q61H (Homo sapiens, UniProt P01116, Q61H)
Construct: Biotinylated KRas (corresponding to amino acids 1-169, produced at Accelegan Inc.); biotin (biotinylated); purchased Accelegan Inc
Sequence (P01116 1-169 isoform P01116-2 Q61H): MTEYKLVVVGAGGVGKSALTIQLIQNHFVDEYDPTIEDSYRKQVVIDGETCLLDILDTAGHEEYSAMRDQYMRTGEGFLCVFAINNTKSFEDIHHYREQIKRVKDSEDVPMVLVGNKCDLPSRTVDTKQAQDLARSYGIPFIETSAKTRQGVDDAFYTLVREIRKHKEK
procedure summary: KRas binding assay (TR-FRET tracer displacement), KRas Q61H
assay context: TR-FRET tracer displacement, KRas Q61H
In plain terms, low IC50, meaning strictly below 20 nM, gives Fulfilled, and everything else gives Not fulfilled.

compound	class label
CCc1cccc2cc3[nH]ncc3c(-c3ncc4c(N5CCCC6(C5)NC(=O)NC6=O)nc(OC[C@@]56CCCN5C[C@H](F)C6)nc4c3F)c12 (stereo partly drawn)	Fulfilled
O=C1NCC2(CCCN(c3nc(OCC45CCCN4CCC5)nc4c(F)c(-c5cc(O)cc(Cl)c5C5CC5)ncc34)C2)N1 (stereo not drawn)	Fulfilled
O=C1NC(=O)C2CC(c3nc(OCC45CCCN4CCC5)nc4c(F)c(-c5cccc6cccc(F)c56)ncc34)=CC12 (stereo not drawn)	Not fulfilled
Oc1cc(Cl)c(C2CC2)c(-c2ncc3c(N4CCC[C@]5(C4)C[C@H](O)C5)nc(OCC45CCCN4CCC5)nc3c2F)c1	Fulfilled
Oc1cc(-c2ncc3c(N4C[C@@H]5C[C@H](C4)[C@H](O)C5)nc(OC[C@@]45CCCN4C[C@H](F)C5)nc3c2F)c2cccc(F)c2c1	Not fulfilled
CN(C)C(=O)c1cc2n(n1)CCCN(c1nc(OC[C@@]34CCCN3C[C@H](F)C4)nc3c(F)c(-c4c(C5CC5)c(Cl)cc5[nH]ncc45)ncc13)C2	Fulfilled
O=S1(=O)CCC2(CCCN(c3nc(OC[C@@]45CCCN4C[C@H](F)C5)nc4c(F)c(-c5cc(O)cc6cccc(Cl)c56)ncc34)C2)N1 (stereo partly drawn)	Fulfilled
O=C1NC(=O)[C@]2(CCCN(c3nc(OCC45CCCN4CCC5)nc4c(F)c(-c5c(C6CC6)c(Cl)cc6[nH]ncc56)ncc34)C2)N1	Fulfilled
Cc1cc2[nH]nnc2c(-c2ncc3c(N4CCCn5nc(C(=O)N(C)C)cc5C4)nc(OCC45CCCN4CCC5)nc3c2F)c1C	Not fulfilled
Oc1cc(Cl)c(C2CC2)c(-c2ncc3c(N4CCC[C@]5(C4)C[C@@H](O)C5)nc(OCC45CCCN4CCC5)nc3c2F)c1	Fulfilled
O=C1NC(=O)C2(CCCN(c3nc(OCC45CCCN4CCC5)nc4c(F)c(-c5c6ccccc6cc6[nH]ncc56)ncc34)C2)N1 (stereo not drawn)	Fulfilled
O=C1NCC2(CCCN(c3nc(OC[C@@]45CCCN4C[C@H](F)C5)nc4c(F)c(-c5c6ccccc6cc6[nH]ncc56)ncc34)C2)N1 (stereo partly drawn)	Not fulfilled
Cc1cc2[nH]nnc2c(-c2ncc3c(N4C[C@@H]5C[C@H](C4)[C@H](O)C5)nc(OCC45CCCN4CCC5)nc3c2F)c1C	Not fulfilled
C[C@@]1(O)CCCN(c2nc(OCC34CCCN3CCC4)nc3c(F)c(-c4ccc(F)c5sc(N)nc45)ncc23)C1	Not fulfilled
O=S1(=O)NCC2(CCCN(c3nc(OCC45CCCN4CCC5)nc4c(F)c(-c5cc(O)cc(Cl)c5C5CC5)ncc34)C2)N1 (stereo not drawn)	Fulfilled
Nc1nc2c(-c3ncc4c(N5CCCC6(C5)NC(=O)NC6=O)nc(OCC56CCCN5CCC6)nc4c3F)ccc(F)c2s1 (stereo not drawn)	Not fulfilled
Oc1cc(-c2ncc3c(N4C[C@@H]5C[C@H](C4)[C@H](O)C5)nc(OC[C@@]45CCCN4C[C@H](F)C5)nc3c2F)c2ccccc2c1	Fulfilled
O=C1NCC2(CCCN(c3nc(OCC45CCCN4CCC5)nc4c(F)c(-c5c6ccccc6cc6[nH]ncc56)ncc34)C2)N1 (stereo not drawn)	Fulfilled

====

As shown below, each of these compounds has a reported IC50 value.
tested on: KRas^G12D (Homo sapiens, UniProt P01116, G12D)
Construct: Biotinylated KRas (corresponding to amino acids 1-169, produced at Accelegan Inc.); biotin (biotinylated); purchased Accelegan Inc
Sequence (P01116 1-169 isoform P01116-2 G12D): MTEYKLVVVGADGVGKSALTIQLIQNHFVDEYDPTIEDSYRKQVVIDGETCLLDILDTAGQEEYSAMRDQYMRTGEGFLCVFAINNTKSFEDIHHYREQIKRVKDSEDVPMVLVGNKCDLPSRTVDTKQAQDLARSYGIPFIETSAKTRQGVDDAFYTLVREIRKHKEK
procedure summary: KRas binding assay (TR-FRET tracer displacement), KRas G12D
reported endpoint: IC50 (nM)

compound	tested on	reported endpoint	relational operator	result number
CCc1c(F)ccc2cc(O)cc(-c3ncc4c(N5CCCn6nc(C(=O)N(C)C)cc6C5)nc(OCC56CCCN5C/C(=C\F)C6)nc4c3F)c12 (stereo not drawn)	KRas^G12D (Homo sapiens, UniProt P01116, G12D)	IC50	<	2
Cc1cc2[nH]ncc2c(-c2ncc3c(N4CCC[C@]5(C4)NC(=O)NC5=O)nc(OC[C@@]45CCCN4C[C@H](F)C5)nc3c2F)c1C	KRas^G12D (Homo sapiens, UniProt P01116, G12D)	IC50	=	15
C#Cc1c(F)ccc2cc(O)cc(-c3ncc4c(N5CCC[C@@](C)(O)C5)nc(OC[C@]56CCCN5[C@H](COC(=O)N(C)C)CC6)nc4c3F)c12	KRas^G12D (Homo sapiens, UniProt P01116, G12D)	IC50	<	2
CCc1c(F)ccc2cc(O)cc(-c3ncc4c(N5CC6CCC(C5)C6C(=O)NC)nc(OC[C@@]56CCCN5C[C@H](F)C6)nc4c3F)c12 (stereo partly drawn)	KRas^G12D (Homo sapiens, UniProt P01116, G12D)	IC50	=	6
CCc1c(F)ccc2cc(O)cc(-c3ncc4c(N5C[C@@H]6C[C@H](C5)[C@H](O)C6)nc(OC[C@@]56CCCN5C[C@@H](F)C6)nc4c3F)c12	KRas^G12D (Homo sapiens, UniProt P01116, G12D)	IC50	=	13
CCc1c(F)ccc2cc(O)cc(-c3ncc4c(NC5CCCc6c(C(=O)N(C)C)nn(C)c65)nc(OC[C@@]56CCCN5C[C@H](F)C6)nc4c3F)c12 (stereo partly drawn)	KRas^G12D (Homo sapiens, UniProt P01116, G12D)	IC50	=	8

====

log10 of IC50 for assorted compounds
tested on: KRas^G12R (Homo sapiens, UniProt P01116, G12R)
Construct: Biotinylated KRas (corresponding to amino acids 1-169, produced at Accelegan Inc.); biotin (biotinylated); purchased Accelegan Inc
Sequence (P01116 1-169 isoform P01116-2 G12R): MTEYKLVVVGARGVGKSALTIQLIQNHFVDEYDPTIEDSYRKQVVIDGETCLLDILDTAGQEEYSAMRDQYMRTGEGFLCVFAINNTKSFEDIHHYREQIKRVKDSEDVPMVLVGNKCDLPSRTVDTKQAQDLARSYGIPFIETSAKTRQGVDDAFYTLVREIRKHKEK
procedure summary: KRas binding assay (TR-FRET tracer displacement), KRas G12R
reported endpoint: log10 of IC50 (log10 of the value in nM)

compound	log10 of IC50
CCc1c(F)ccc2cc(O)cc(-c3ncc4c(N5C[C@H]6CC[C@@]6(O)C5)nc(OC[C@@]56CCCN5C[C@H](F)C6)nc4c3F)c12	1.57
CCc1c(F)ccc2cc(O)cc(-c3ncc4c(NS(=O)(=O)C[C@H]5CNCCO5)nc(OC[C@@]56CCCN5C[C@H](F)C6)nc4c3F)c12	3.35
CCc1c(F)ccc2cc(O)cc(-c3ncc4c(N5CCC(C)(O)C(F)(F)CC5)nc(OC[C@@]56CCCN5C[C@H](F)C6)nc4c3F)c12 (stereo partly shown)	1.67
Cc1cc2[nH]ncc2c(-c2ncc3c(N4CCCn5nc(C(=O)N(C)C)cc5C4)nc(OCC45CCCN4CCC5)nc3c2F)c1C	2.31
CCc1c(F)ccc2cc(O)cc(-c3ncc4c(N5CCC[C@@](C)(O)C5)nc(N5CC(N)C5)nc4c3F)c12	2.29
CCc1c(F)ccc2cc(O)cc(-c3ncc4c(N5CC6CCC(C5)C6C(=O)N(C)C)nc(OC[C@@]56CCCN5C[C@H](F)C6)nc4c3F)c12 (stereo partly shown)	1.00
CCc1c(F)ccc2cc(O)cc(-c3ncc4c(N5CC6(CO)CC(C7CCCC7)(C5)C6)nc(OC[C@@]56CCCN5C[C@H](F)C6)nc4c3F)c12	3.87
CCc1c(F)ccc2cc(O)cc(-c3ncc4c(N5CC6CCC(C(=O)N(C)C)(C5)C6(F)F)nc(OC[C@@]56CCCN5C[C@H](F)C6)nc4c3F)c12 (stereo partly shown)	1.97
CCc1c(F)ccc2cc(O)cc(-c3ncc4c(N5CCC[C@@](C)(O)C5)nc(OC[C@]56CCCN5[C@@H](COC)CC6)nc4c3F)c12	0.70
CCc1c(F)ccc2cc(O)cc(-c3ncc4c(N5CCCC6(CCS6(=O)=O)C5)nc(OC[C@@]56CCCN5C[C@H](F)C6)nc4c3F)c12 (stereo partly shown)	2.26
CCOC(=O)C12CCC(CN(c3nc(OC[C@@]45CCCN4C[C@H](F)C5)nc4c(F)c(-c5cc(O)cc6ccc(F)c(CC)c56)ncc34)C1)C2(F)F (stereo partly shown)	1.82

====

Attribute: log10 IC50
tested on: KRas^G12C (Homo sapiens, UniProt P01116, G12C)
Construct: Biotinylated KRas (corresponding to amino acids 1-169, produced at Accelegan Inc.); biotin (biotinylated); purchased Accelegan Inc
Sequence (P01116 1-169 isoform P01116-2 G12C): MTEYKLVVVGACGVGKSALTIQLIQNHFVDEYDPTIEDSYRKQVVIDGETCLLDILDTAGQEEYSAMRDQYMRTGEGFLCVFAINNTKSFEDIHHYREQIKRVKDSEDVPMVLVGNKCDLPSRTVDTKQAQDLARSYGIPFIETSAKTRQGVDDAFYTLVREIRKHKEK
procedure summary: KRas binding assay (TR-FRET tracer displacement), KRas G12C
assay context: TR-FRET tracer displacement, KRas G12C
reported endpoint: log10 IC50 (log10 of the value in nM)

compound	result number
CCc1cccc2cc3[nH]ncc3c(-c3ncc4c(N5CCCn6nc(C(=O)N(C)C)cc6C5)nc(OC[C@@]56CCCN5C[C@H](F)C6)nc4c3F)c12	0.78
C#Cc1c(F)ccc2cc(O)cc(-c3ncc4c(N5CCC[C@@](C)(O)C5)nc(OC[C@@]56CCCN5[C@@H](CO)CC6)nc4c3F)c12	0.48
Cc1ccc2c(-c3ncc4c(N5C[C@@H]6C[C@H](C5)[C@H](O)C6)nc(OC[C@@]56CCCN5C[C@H](F)C6)nc4c3F)cc(O)cc2c1	2.03
O=C1NC(=O)C2(CCCN(c3nc(OC[C@@]45CCCN4C[C@H](F)C5)nc4c(F)c(-c5c6ccccc6cc6[nH]ncc56)ncc34)C2)N1 (stereo partly drawn)	0.85
Oc1cc2ccccc2c(-c2ncc3c(N4C[C@@H]5C[C@H](C4)[C@H](O)C5)nc(OC[C@@]45CCCN4C[C@H](F)C5)nc3c2F)c1Cl	2.16
C[C@@]1(O)CCCN(c2nc(OC[C@@]34CCCN3C[C@H](F)C4)nc3c(F)c(-c4c(C5CC5)c(Cl)cc5[nH]ncc45)ncc23)C1	0.85
CCc1c(F)ccc2cc(O)cc(-c3ncc4c(N5CC6CCC(C5)S6)nc(OC[C@@]56CCCN5C[C@H](F)C6)nc4c3F)c12	1.26
CC1(O)COCCN(c2nc(OCC34CCCN3CCC4)nc3c(F)c(-c4cc(O)cc(Cl)c4C4CC4)ncc23)C1 (racemic)	0.85
O=S1(=O)NCC2(CCCN(c3nc(OCC45CCCN4CCC5)nc4c(F)c(-c5cc(O)cc(Cl)c5C5CC5)ncc34)C2)N1 (stereo not drawn)	0.48
Cc1cc2[nH]ncc2c(-c2ncc3c(N4CCCC5(CNC(=O)N5)C4)nc(OCC45CCCN4CCC5)nc3c2F)c1C (stereo not drawn)	1.60
